TEST TARGET: UniProt P20393
Sequence (P20393 284-614 limits assumed): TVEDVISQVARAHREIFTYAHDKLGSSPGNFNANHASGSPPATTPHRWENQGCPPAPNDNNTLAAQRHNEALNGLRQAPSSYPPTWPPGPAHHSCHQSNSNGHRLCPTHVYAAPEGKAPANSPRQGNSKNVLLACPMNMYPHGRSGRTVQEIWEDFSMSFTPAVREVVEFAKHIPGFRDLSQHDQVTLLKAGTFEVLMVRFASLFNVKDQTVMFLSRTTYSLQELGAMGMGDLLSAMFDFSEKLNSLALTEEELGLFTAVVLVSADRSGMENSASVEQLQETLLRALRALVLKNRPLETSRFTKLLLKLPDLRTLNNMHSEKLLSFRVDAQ
PROTOCOL DETAILS: M2H (mammalian two-hybrid) cellular activation assay of Rev-Erb alpha
Format: cell-based
ASSAY CONTEXT: M2H assay, HEK293 cells, Gal4-Rev-Erb alpha / VP16-NCoR, luciferase reporter
pEC50: −log10 of the molar value.
I'd appreciate it if you could supply pEC50 values for the items below.

The reported pEC50 of the molecule `Fc1cc(Oc2ccc3nnc(Cl)n3n2)c(-c2ccccc2)cc1F` was 6.00 to 7.00

Per the records, this molecule ( `Oc1cncc(-c2ccc(C(F)(F)F)cc2Oc2ccc3nnc(Cl)n3n2)c1` ) has pEC50 equal to < 5.22

Documented pEC50 of `Clc1cccc(-c2ccccc2Oc2ccc3nnc(Cl)n3n2)c1` : 6.00 to 7.00

Data point: `CCCCn1cc(-c2ccc(C(F)(F)F)cc2Oc2ccc3nnc(Cl)n3n2)ccc1=O` ; pEC50 = < 5.22

Value of pEC50 reported for the molecule `Fc1ccc(Oc2ccc3nnc(Cl)n3n2)c(-c2ccccc2)c1` is 6.00 to 7.00

response.value for `COc1ccncc1-c1ccc(C(F)(F)F)cc1Oc1ccc2nnc(Cl)n2n1` (field: pEC50) = 5.22 to 6.00

Record `Fc1ccc(Oc2ccc3nnc(Cl)n3n2)c(-c2ccc(Cl)cc2)c1` , field pEC50: 6.00 to 7.00

Kindly note the recorded pEC50 for `Cc1cc2nnc(Cl)n2nc1Oc1cc(C(F)(F)F)ccc1-c1cccnc1C` , which is 6.00 to 7.00

response.value for `CN(C)c1ccc(Oc2ccc3nnc(Cl)n3n2)c(-c2ccccc2)c1` (field: pEC50) = > 7.00

Note to self: pEC50 recorded for `CCCCNc1ccc(-c2ccccc2)c(Oc2ccc3nnc(Cl)n3n2)c1` was 6.00 to 7.00

Query `Clc1nnc2ccc(Oc3cc(NCCC4CCCCC4)ccc3-c3ccccc3)nn12` yields pEC50 of 6.00 to 7.00

Reported pEC50 for `COc1ncccc1-c1ccc(C(F)(F)F)cc1Oc1cc(C)c2nnc(Cl)n2n1` was 5.22 to 6.00

Record `Cc1ncncc1-c1ccc(C(F)(F)F)cc1Oc1cc(C)c2nnc(Cl)n2n1` . Reported pEC50: 5.22 to 6.00

Query `Fc1ccccc1-c1ccccc1Oc1ccc2nnc(Cl)n2n1` yields pEC50 of 6.00 to 7.00

Field pEC50 (entry `Oc1cccc(-c2cc(F)ccc2Oc2ccc3nnc(Cl)n3n2)c1` ) reads 5.22 to 6.00

# pEC50 of `Clc1nnc2ccc(Oc3ccc(CNCC4CCCCC4)cc3-c3ccccc3)nn12` = 5.22 to 6.00

Notebook: `Clc1nnc2ccc(Oc3cc(CNCC4CCCCC4)ccc3-c3ccccc3)nn12` , pEC50 read as 5.22 to 6.00

Looking up `Cc1cc(Oc2cc(C(F)(F)F)ccc2-c2ccccc2)nn2c(Cl)nnc12` , I see its pEC50 listed as > 7.00

Record Clc1nnc2ccc(Oc3cc(CNCC4CCCO4)ccc3-c3ccccc3)nn12 (stereo not shown) , field pEC50: < 5.22

###

TEST TARGET: Rev-Erb alpha (Homo sapiens, UniProt P20393)
PROTOCOL DETAILS: M2H (mammalian two-hybrid) cellular activation assay of Rev-Erb alpha
Type: cell-based
ASSAY CONTEXT: M2H assay, HEK293 cells, Gal4-Rev-Erb alpha / VP16-NCoR, luciferase reporter
pEC50: −log10 of the molar value.
QUANTITY NAME: pEC50

Briefly, pEC50 measured for Clc1ccc(Oc2ccc3nnc(Cl)n3n2)c(Cc2ccccc2)c1 [Cpd.4-146] : 6.00 to 7.00

Consider FC(F)(F)c1ccc(-c2ccc(Cl)nc2)c(Oc2ccc3nnc(Cl)n3n2)c1 [Cpd.4-101] . Its measured pEC50 is 6.00 to 7.00

The measured pEC50 associated with Fc1ccc(Oc2ccc3nnc(Cl)n3n2)c(-c2ccccc2F)c1 [Cpd.4-121] reads 6.00 to 7.00

Looking up COc1ncc(-c2ccc(C(F)(F)F)cc2Oc2nn3c(Cl)nnc3c3ccccc23)c(OC)n1 [Cpd.5-54] , I found its pEC50 recorded as < 5.22

Lab note: measured pEC50 of Cc1ccc(-c2ccc(C(F)(F)F)cc2Oc2nn3c(Cl)nnc3c3ccccc23)cn1 [Cpd.5-18] was 6.00 to 7.00

Lab note: CC(C)(C)OC(=O)NCc1ccc(Oc2ccc3nnc(Cl)n3n2)c(-c2ccccc2)c1 [Cpd.4-170] gave pEC50 of 6.00 to 7.00

Entry Clc1nnc2ccc(Oc3ccccc3-c3nccs3)nn12 [Cpd.4-104] , pEC50 reported as < 5.22

The compound listed as Clc1ccc(Oc2ccc3nnc(Cl)n3n2)c(-c2cncnc2)c1 [Cpd.4-194] has a reported pEC50 of < 5.22

response.value for OCc1ccc(Oc2ccc3nnc(Cl)n3n2)c(-c2ccccc2)c1 [Cpd.4-66] (field: pEC50) = 5.22 to 6.00

Entry FC(F)(F)c1nnc2ccc(Oc3cccc(Cc4ccccc4)c3)nn12 [Cpd.3-5] ; pEC50 = 6.00 to 7.00

For reference, reported pEC50 for `CN(CCc1ccccc1)Cc1ccc(Oc2ccc3nnc(Cl)n3n2)c(-c2ccccc2)c1` stands at 5.22 to 6.00

// recorded pEC50 for Cn1cc(-c2ccc(C(F)(F)F)cc2Oc2ccc3nnc(Cl)n3n2)ccc1=O [Cpd.4-86] : < 5.22

So, COc1ccccc1-c1ccccc1Oc1ccc2nnc(Cl)n2n1 [Cpd.4-111] ? Its pEC50 was 6.00 to 7.00

Reported pEC50 ( Clc1ccc(-c2ccccc2Oc2ccc3nnc(Cl)n3n2)cc1 [Cpd.4-117] ) = 6.00 to 7.00

###

QUANTITY NAME: melting point

The molecule identified as CC(C)N(Cc1ccc(Oc2ccc3nnc(Cl)n3n2)c(-c2ccccc2)c1)C(C)C [Cpd.4-166] registered its melting point at 59.1 °C

Entry Fc1cccc(-c2ccc(F)cc2Oc2ccc3nnc(Cl)n3n2)c1 [Cpd.4-30] — recorded melting point = 123.4 °C

Item: Clc1ccc(Oc2nn3c(Cl)nnc3c3ccccc23)c(-c2cncnc2)c1 [Cpd.5-60] | melting point: 252 to 253 °C

// CN(C)c1ccc(Oc2ccc3nnc(Cl)n3n2)c(-c2ccccc2)c1 [Cpd.4-46] : melting point value = 148 to 149 °C

GET /value?item= COc1ccccc1-c1cccc(Oc2ccc3nnc(Cl)n3n2)c1 [Cpd.3-8] &field=melting point returns 82.5 °C

So, CN(C)Cc1ccc(-c2ccccc2)c(Oc2ccc3nnc(Cl)n3n2)c1 [Cpd.4-41] ? Its melting point was 141 to 144 °C

Lab book: melting point of COc1ncc(C(F)(F)F)cc1-c1ccc(C(F)(F)F)cc1Oc1nn2c(Cl)nnc2cc1C [Cpd.5-26] noted as 194 to 196 °C

Please fill in: melting point reported for Cc1ccc(-c2ccc(C(F)(F)F)cc2Oc2ccc3nnc(Cl)n3n2)cn1 [Cpd.4-196] = 212 to 214 °C

Data point: Fc1ccc(-c2ccccc2)c(Oc2ccc3nnc(Cl)n3n2)c1 [Cpd.4-7] ; melting point = 180.7 °C

response.value for CC(C)CNc1ccc(-c2ccccc2)c(Oc2ccc3nnc(Cl)n3n2)c1 [Cpd.4-51] (field: melting point) = 124 to 128 °C

# melting point of Clc1nnc2ccc(Oc3cc(CN4CCOCC4)ccc3-c3ccccc3)nn12 [Cpd.4-64] = 162 to 163 °C

According to the records, this molecule COc1ccc(-c2ccccc2)c(Oc2ccc3nnc(Cl)n3n2)c1 [Cpd.4-6] displays melting point of 128.1 °C

Consider FC(F)(F)c1ccc(-c2ccccc2)c(Oc2ccc3nnc(C(F)(F)F)n3n2)c1 [Cpd.4-38] . Its measured melting point is 150 °C

Form field melting point, entry Clc1nnc2ccc(Oc3ccc(CNCC4CCCCC4)cc3-c3ccccc3)nn12 [Cpd.4-162] : 53.4 to 55.7 °C

Measured melting point of Cc1cc(Oc2cc(C(F)(F)F)ccc2-c2ccccc2)nn2c(Cl)nnc12 [Cpd.5-6] : 169 to 172 °C

###

TEST TARGET: Rev-Erb alpha (Homo sapiens)
PROTOCOL DETAILS: M2H (mammalian two-hybrid) cellular activation assay of Rev-Erb alpha
Format: cell-based
ASSAY CONTEXT: M2H assay, HEK293 cells, Gal4-Rev-Erb alpha / VP16-NCoR, luciferase reporter
For each entry below, report its EC50 value.

The compound listed as `Fc1ccc(-c2ccccc2Oc2ccc3nnc(Cl)n3n2)cc1` has a reported EC50 of 100 to 1000 nM

# EC50 (compound: `Clc1nnc2ccc(Oc3ccc(CNC4CCCC4)cc3-c3ccccc3)nn12` ) is 1000 to 6000 nM

Entry `COc1ncc(F)cc1-c1ccc(C(F)(F)F)cc1Oc1nn2c(Cl)nnc2cc1C` — recorded EC50 = 100 to 1000 nM
